Where do these numbers come from? They come from patent US20240101576A1.

target: EGFR exon 20 SVD Ins D770_N771 (Ba/F3 cells) (Homo sapiens, UniProt P00533, INS770SVD); construct: expressed in transfected cells; host or cells: Ba/F3 (murine pro-B cells), retroviral transduction, puromycin selection, IL3-independent pool; assay: Inhibitor activity on EGFR phosphorylation (pEGFR AlphaLISA, 2 h), Ba/F3 EGFR exon 20 SVD Ins; assay type: cell-based
Sequence (P00533 with tags, fused parts or gaps INS770SVD): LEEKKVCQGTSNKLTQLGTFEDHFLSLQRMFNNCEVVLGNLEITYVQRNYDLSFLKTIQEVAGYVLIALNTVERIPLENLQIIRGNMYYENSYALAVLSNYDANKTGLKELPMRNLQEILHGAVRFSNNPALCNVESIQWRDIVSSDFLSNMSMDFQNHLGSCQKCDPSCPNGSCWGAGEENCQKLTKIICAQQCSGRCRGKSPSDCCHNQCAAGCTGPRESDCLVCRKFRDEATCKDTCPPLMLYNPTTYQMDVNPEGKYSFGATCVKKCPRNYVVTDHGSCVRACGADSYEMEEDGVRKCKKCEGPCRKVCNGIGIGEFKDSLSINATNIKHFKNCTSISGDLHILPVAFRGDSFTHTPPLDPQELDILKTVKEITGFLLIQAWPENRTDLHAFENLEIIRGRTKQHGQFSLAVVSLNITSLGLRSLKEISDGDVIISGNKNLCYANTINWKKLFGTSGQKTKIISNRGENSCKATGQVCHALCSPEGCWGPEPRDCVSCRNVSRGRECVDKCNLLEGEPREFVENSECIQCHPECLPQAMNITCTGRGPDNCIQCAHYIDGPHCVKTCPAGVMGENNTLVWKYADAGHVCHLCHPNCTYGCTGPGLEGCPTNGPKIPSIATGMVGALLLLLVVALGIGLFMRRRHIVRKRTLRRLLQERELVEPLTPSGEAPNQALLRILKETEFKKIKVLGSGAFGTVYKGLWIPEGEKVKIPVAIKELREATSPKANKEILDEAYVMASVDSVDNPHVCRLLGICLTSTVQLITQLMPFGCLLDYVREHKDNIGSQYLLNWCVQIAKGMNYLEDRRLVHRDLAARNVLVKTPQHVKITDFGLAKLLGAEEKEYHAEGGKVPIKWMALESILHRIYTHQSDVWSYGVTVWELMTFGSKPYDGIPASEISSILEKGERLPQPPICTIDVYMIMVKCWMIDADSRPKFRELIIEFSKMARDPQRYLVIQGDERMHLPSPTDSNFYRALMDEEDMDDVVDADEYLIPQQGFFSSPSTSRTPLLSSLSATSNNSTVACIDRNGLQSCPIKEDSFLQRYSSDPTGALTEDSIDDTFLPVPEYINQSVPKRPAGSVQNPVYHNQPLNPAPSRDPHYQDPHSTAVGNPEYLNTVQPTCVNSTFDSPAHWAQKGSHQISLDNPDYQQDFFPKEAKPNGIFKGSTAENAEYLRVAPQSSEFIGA
pIC50: −log10 of the molar value.

{"columns": ["Molecule", "pIC50"],
 "data": [
  ["COCC[C@H]1CNC(=O)c2c1[nH]c(-c1ccnc(C)n1)c2Nc1cccc(Cl)c1OC [463b]", "> 7.00"],
  ["COc1c(Cl)cccc1Nc1c(-c2ccnc(C)n2)[nH]c2c1C(=O)NC[C@H]2C[C@@H]1COCCO1 (single isomer, unassigned) [Compound 570]", "> 7.00"],
  ["COc1c(Cl)cccc1Nc1c(-c2ccnc(N)n2)[nH]c2c1C(=O)NC[C@H]2C[C@@H]1COCCO1 [Compound 567]", "> 7.00"]
]}

* * *

molecular target: EGFR WT (Ba/F3 cells) (Homo sapiens); assay: Inhibitor activity on EGFR-dependent cell growth (CellTiter-Glo, 72 h), Ba/F3 EGFR WT; settings: read-out: BaF3 WT IC50
Sequence (P00533 25-1210): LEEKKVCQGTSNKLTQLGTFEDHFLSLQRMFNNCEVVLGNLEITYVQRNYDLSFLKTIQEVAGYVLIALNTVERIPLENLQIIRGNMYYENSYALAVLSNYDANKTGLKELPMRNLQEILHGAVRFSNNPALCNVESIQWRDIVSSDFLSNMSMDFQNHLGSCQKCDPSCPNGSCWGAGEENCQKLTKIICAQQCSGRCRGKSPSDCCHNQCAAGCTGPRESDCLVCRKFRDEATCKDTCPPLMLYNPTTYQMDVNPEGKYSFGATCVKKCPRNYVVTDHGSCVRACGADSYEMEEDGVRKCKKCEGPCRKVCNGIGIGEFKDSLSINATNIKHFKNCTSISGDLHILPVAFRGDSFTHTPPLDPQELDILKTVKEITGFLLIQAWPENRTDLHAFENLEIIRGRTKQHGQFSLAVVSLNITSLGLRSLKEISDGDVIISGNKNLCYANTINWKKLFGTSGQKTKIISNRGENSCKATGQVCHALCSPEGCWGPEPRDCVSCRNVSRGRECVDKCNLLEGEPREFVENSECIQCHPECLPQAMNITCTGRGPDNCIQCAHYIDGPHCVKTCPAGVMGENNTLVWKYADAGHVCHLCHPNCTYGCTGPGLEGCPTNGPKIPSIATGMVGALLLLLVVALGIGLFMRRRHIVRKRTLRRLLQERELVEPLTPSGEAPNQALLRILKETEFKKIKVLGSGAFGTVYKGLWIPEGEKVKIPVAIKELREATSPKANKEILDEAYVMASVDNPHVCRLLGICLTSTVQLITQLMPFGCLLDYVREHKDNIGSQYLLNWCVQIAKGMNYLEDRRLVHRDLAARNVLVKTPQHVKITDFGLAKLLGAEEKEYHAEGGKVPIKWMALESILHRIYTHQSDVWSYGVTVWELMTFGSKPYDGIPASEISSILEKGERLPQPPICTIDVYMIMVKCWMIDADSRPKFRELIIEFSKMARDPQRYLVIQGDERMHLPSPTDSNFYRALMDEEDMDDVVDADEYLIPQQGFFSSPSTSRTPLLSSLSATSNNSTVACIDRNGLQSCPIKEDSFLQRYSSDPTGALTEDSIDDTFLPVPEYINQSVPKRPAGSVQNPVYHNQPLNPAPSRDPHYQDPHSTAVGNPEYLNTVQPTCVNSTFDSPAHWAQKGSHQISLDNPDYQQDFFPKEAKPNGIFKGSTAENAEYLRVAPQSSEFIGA
pIC50: −log10 of the molar value.
Below is a list of entries, each paired with its recorded pIC50 value.
Endpoint name: pIC50

{"columns": ["Compound", "Measured target", "Result"],
 "data": [
  ["COc1c(Cl)cccc1Nc1c(-c2ccncc2F)[nH]c2c1C(=O)NC[C@@H]2C[C@H]1COCCO1", "EGFR WT (Ba/F3 cells) (Homo sapiens)", "6.00 to 7.00"],
  ["COc1c(F)cccc1Nc1c(-c2nnc3cc(C)ccn23)[nH]c2c1C(=O)NCC2", "EGFR WT (Ba/F3 cells) (Homo sapiens)", "< 6.00"],
  ["Nc1nccc(-c2[nH]c3c(c2Nc2cccc(F)c2OC(F)F)C(=O)NCC3)n1", "EGFR WT (Ba/F3 cells) (Homo sapiens)", "< 6.00"],
  ["CSc1c(F)cccc1Nc1c(-c2ccnc(N)n2)[nH]c2c1C(=O)NCC2", "EGFR WT (Ba/F3 cells) (Homo sapiens)", "< 6.00"],
  ["COc1c(Cl)cccc1Nc1c(-c2ccnc3ccc(OCCCN4CCOCC4)nc23)[nH]c2c1C(=O)NCC2", "EGFR WT (Ba/F3 cells) (Homo sapiens)", "6.00 to 7.00"],
  ["COCCC1(C)CNC(=O)c2c1[nH]c(-c1ccncc1F)c2Nc1cccc(Cl)c1OC (single isomer, unassigned) [Compound 779]", "EGFR WT (Ba/F3 cells) (Homo sapiens)", "6.00 to 7.00"],
  ["COc1c(Cl)cccc1Nc1c(-c2ccnc(NC(C)C)n2)[nH]c2c1C(=O)NCC2", "EGFR WT (Ba/F3 cells) (Homo sapiens)", "< 6.00"],
  ["COc1ncc2nccc(-c3[nH]c4c(c3Nc3cccc(F)c3F)C(=O)NCC4)c2n1", "EGFR WT (Ba/F3 cells) (Homo sapiens)", "6.00 to 7.00"],
  ["COc1c(F)cccc1Nc1c(-c2ccnc3ccc(OC4CC4)nc23)[nH]c2c1C(=O)NCC2", "EGFR WT (Ba/F3 cells) (Homo sapiens)", "> 7.00"],
  ["COc1c(Cl)cccc1Nc1c(-c2ccnc3ccc(OCC(F)(F)F)nc23)[nH]c2c1C(=O)NCC2", "EGFR WT (Ba/F3 cells) (Homo sapiens)", "6.00 to 7.00"],
  ["COc1c(Cl)cccc1Nc1c(-c2ccncc2F)[nH]c2c1C(=O)NC[C@@]21CCOC1 (single isomer, unassigned)", "EGFR WT (Ba/F3 cells) (Homo sapiens)", "< 6.00"],
  ["Nc1nccc(-c2[nH]c3c(c2Nc2ccccc2Cl)C(=O)NCC3)n1", "EGFR WT (Ba/F3 cells) (Homo sapiens)", "6.00 to 7.00"],
  ["CCn1nncc1Nc1nccc(-c2[nH]c3c(c2Nc2cccc(Cl)c2OC)C(=O)NCC3)n1", "EGFR WT (Ba/F3 cells) (Homo sapiens)", "6.00 to 7.00"],
  ["COc1c(Cl)cccc1Nc1c(-c2ccnc3ccc(OCC4COC4)nc23)[nH]c2c1C(=O)NCC2", "EGFR WT (Ba/F3 cells) (Homo sapiens)", "6.00 to 7.00"],
  ["COc1c(Cl)cccc1Nc1c(-c2ccnc(-c3ccnnc3)n2)[nH]c2c1C(=O)NCC2", "EGFR WT (Ba/F3 cells) (Homo sapiens)", "< 6.00"]
]}
